Test system: human breast carcinoma cell line MCF-7^wt
METHOD_SUMMARY: Cytotoxicity, MTT cell survival
Type: cell-based
REPORTED_CONDITIONS: Homo sapiens, Breast carcinoma cell, 72 hours
QUANTITY: IC50 (µM)
Give bare numbers, in µM.

IN: Give its IC50 value. Item: COc1cccc2c1C(=O)c1c(O)c3c(c(O)c1C2=O)C[C@@](O)(C(=O)CO)C[C@@H]3O[C@H]1C[C@H](N)[C@H](O)[C@H](C)O1
OUT: 0.0586

###

Tested on: human ovary carcinoma cell line SKOV3
METHOD_SUMMARY: Cytotoxicity, MTT cell survival
Assay type: cell-based
REPORTED_CONDITIONS: Homo sapiens, SK-OV-3, SKOV3, 72 hours
From the text: Efficacy of the conjugate was studied on the following cell lines: human breast carcinoma cell line MCF-7^wt and resistant human breast carcinoma cell line MCF-7^AdrR; human ovary carcinoma cell line SKOV3 and resistant human ovary carcinoma cell line SKVLB; and murine melanoma cell line B16. Study protocol was common for all test runs. […]
QUANTITY: pIC50
Answers are plain numbers, as −log10 of the molar value.

IN: Give its pIC50 value. Item: COc1cccc2c1C(=O)c1c(O)c3c(c(O)c1C2=O)C[C@@](O)(C(=O)CO)C[C@@H]3O[C@H]1C[C@H](N)[C@H](O)[C@H](C)O1 [DR, doxorubicin]
OUT: 6.68

###

Test system: resistant human ovary carcinoma cell line SKVLB
METHOD_SUMMARY: Cytotoxicity, MTT cell survival
Type: cell-based
REPORTED_CONDITIONS: SKVLB^AdrR, 72 hours
Peptide text beside a SMILES is read from it. * marks the point of attachment. X1 = COc1cccc2c1C(=O)c1c(O)c3c(c(O)c1C2=O)C[C@@](O)(C(=O)CO)C[C@@H]3O[C@H]1C[C@H](N=CCCCC=N[C@@H](CCSC)C(=O)*)[C@H](O)[C@H](C)O1
QUANTITY: IC50 (nM)
Give bare numbers, in nM.

IN: Give its IC50 value. Item: CC[C@H](C)[C@H](NC(=O)[C@H](Cc1ccc(O)cc1)NC(=O)[C@H](CCSC)N=CCCCC=N[C@H]1C[C@H](O[C@H]2C[C@](O)(C(=O)CO)Cc3c(O)c4c(c(O)c32)C(=O)c2c(OC)cccc2C4=O)O[C@@H](C)[C@H]1O)C(=O)N[C@@H](CCC(=O)O)C(=O)N[C@@H](C)C(=O)N[C@@H](CC(C)C)C(=O)N[C@@H](CC(=O)O)C(=O)N[C@@H](CO)C(=O)N[C@@H](Cc1ccc(O)cc1)C(=O)N[C@@H](C)C(=O)N[C@@H](CS)C(=O)O [Polypeptide-DR conjugate] (X1-YIEALDSYAC-OH)
OUT: 70

###

System: murine melanoma cell line B16
METHOD_SUMMARY: Cytotoxicity, MTT cell survival
Assay type: cell-based
REPORTED_CONDITIONS: Mus musculus, B16, 72 hours
QUANTITY: IC50 (nM)
One number for each entry, in nM.

IN: Give its IC50 value. Item: COc1cccc2c1C(=O)c1c(O)c3c(c(O)c1C2=O)C[C@@](O)(C(=O)CO)C[C@@H]3O[C@H]1C[C@H](N)[C@H](O)[C@H](C)O1
OUT: 35

###

Test system: resistant human breast carcinoma cell line MCF-7^AdrR
METHOD_SUMMARY: Cytotoxicity, MTT cell survival
Format: cell-based
REPORTED_CONDITIONS: Homo sapiens, Breast carcinoma cell, 72 hours
QUANTITY: pIC50
Give bare numbers, as −log10 of the molar value.

IN: Give its pIC50 value. Item: COc1cccc2c1C(=O)c1c(O)c3c(c(O)c1C2=O)C[C@@](O)(C(=O)CO)C[C@@H]3O[C@H]1C[C@H](N)[C@H](O)[C@H](C)O1
OUT: 5.43
